- target or test system: Neuropeptide Y receptor type 1 (Homo sapiens, UniProt P25929); further: assay procedure not described here
- Sequence (P25929 whole entry): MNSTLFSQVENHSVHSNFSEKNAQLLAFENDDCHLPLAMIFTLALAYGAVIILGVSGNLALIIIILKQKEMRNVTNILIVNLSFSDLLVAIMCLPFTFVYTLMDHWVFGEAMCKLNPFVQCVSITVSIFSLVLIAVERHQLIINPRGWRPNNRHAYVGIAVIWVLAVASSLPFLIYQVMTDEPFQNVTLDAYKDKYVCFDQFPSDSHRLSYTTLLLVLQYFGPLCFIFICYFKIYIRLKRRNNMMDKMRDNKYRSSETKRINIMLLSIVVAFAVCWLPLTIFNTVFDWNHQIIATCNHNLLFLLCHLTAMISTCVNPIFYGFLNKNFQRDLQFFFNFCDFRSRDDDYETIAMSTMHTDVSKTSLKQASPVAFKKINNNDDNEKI
Collected AC50 values appear next to each entry.

molecule: COC(=O)N[C@@H](C)CNc1nccc(-c2cn(C(C)C)nc2-c2cc(Cl)cc(NS(C)(=O)=O)c2F)n1
AC50: > 30 µM
--
molecule: CCCOC(C(=O)OC1CCN(C)CC1)(c1ccccc1)c1ccccc1
AC50: > 30 µM
--
molecule: Nc1nc2c(c(=O)[nH]1)N(C=O)C(CNc1ccc(C(=O)N[C@@H](CCC(=O)O)C(=O)O)cc1)CN2 (some centres not stated)
AC50: > 30 µM
--
molecule: CC1(C)S[C@@H]2[C@H](NC(=O)[C@H](N)c3ccc(O)cc3)C(=O)N2[C@H]1C(=O)O
AC50: > 30 µM
--
molecule: CCN(CC)CC(=O)Oc1ccc(NC(C)=O)cc1
AC50: > 30 µM
--
molecule: O=C1CN2Cc3c(ccc(Cl)c3Cl)N=C2N1 [ANAGRELIDE]
AC50: > 30 µM
--
molecule: Cc1cc2nc3c(=O)[nH]c(=O)nc-3n(C[C@H](O)[C@H](O)[C@H](O)COP(=O)(O)O)c2cc1C [RIBOFLAVIN 5'-PHOSPHATE]
AC50: > 30 µM
--
molecule: N=C(N)NCCCCCCC(=O)NC(O)C(=O)NCCCCNCCCN (configuration not stated)
AC50: > 30 µM
--
molecule: CC1(C)O[C@@H]2[C@@H](CO[C@@]3(COS(N)(=O)=O)OC(C)(C)O[C@@H]23)O1 [TOPIRAMATE]
AC50: > 30 µM
--
molecule: Cc1ccc(NC(=O)C2(c3ccc4c(c3)OC(F)(F)O4)CC2)nc1-c1cccc(C(=O)O)c1
AC50: > 30 µM
--
molecule: CN(c1nccc(=O)[nH]1)C1CCN(c2nc3ccccc3n2Cc2ccc(F)cc2)CC1
AC50: > 30 µM
--
molecule: CO[C@@]1(NC(=O)Cc2cccs2)C(=O)N2C(C(=O)O)=C(COC(N)=O)CS[C@@H]21
AC50: > 30 µM
--
molecule: COc1cc2c(Nc3ccc(Br)cc3F)ncnc2cc1OCC1CCN(C)CC1
AC50: > 30 µM
--
molecule: CN(C)C(=O)Oc1cc(OC(=O)N(C)C)cc(C(O)CNC(C)(C)C)c1 (configuration not stated)
AC50: > 30 µM
--
molecule: C#C[C@]1(O)CC[C@H]2[C@@H]3CCC4=CC(=O)CCC4=C3C=C[C@@]21CC
AC50: > 30 µM
--
molecule: CC(=O)/N=c1/sc(S(N)(=O)=O)nn1C [METHAZOLAMIDE]
AC50: > 10 µM
--
molecule: CC(=O)O[C@H]1C[C@@H]2CC[C@@H]3[C@H](CC[C@@]4(C)[C@H]3C[C@H]([N+]3(C)CCCCC3)[C@@H]4OC(C)=O)[C@@]2(C)C[C@@H]1[N+]1(C)CCCCC1
AC50: > 10 µM
--
molecule: C[C@@H]1CCC[C@H](C)N1NC(=O)c1ccc(Cl)c(S(N)(=O)=O)c1 [CLOPAMIDE]
AC50: > 30 µM
--
molecule: O=C1NC(=O)C(c2ccccc2)(c2ccccc2)N1
AC50: > 30 µM
--
molecule: C=CC1=C(C(=O)O)N2C(=O)[C@@H](NC(=O)/C(=N\OCC(=O)O)c3csc(N)n3)[C@H]2SC1
AC50: > 30 µM
--
molecule: Clc1ccc(C(Cn2ccnc2)OCc2ccc(Sc3ccccc3)cc2)c(Cl)c1 (configuration not stated)
AC50: 30 µM
--
molecule: CC1(C)C(/C=C/C=C/C=C/C=C2\N(CCCCS(=O)(=O)O)c3ccc4ccccc4c3C2(C)C)=[N+](CCCCS(=O)(=O)[O-])c2ccc3ccccc3c21 [INDOCYANINE GREEN ACID FORM]
AC50: > 30 µM
--
molecule: CNC(=O)Oc1ccc2c(c1)[C@]1(C)CCN(C)[C@@H]1N2C
AC50: > 30 µM
--
molecule: CC(=O)Nc1c(I)c(C(=O)N[C@H]2C(O)O[C@H](CO)[C@@H](O)[C@@H]2O)c(I)c(N(C)C(C)=O)c1I (some centres not stated) [METRIZAMIDE]
AC50: > 10 µM
--
molecule: C=C[C@@]1(C)CC(=O)[C@]2(O)[C@@]3(C)[C@@H](O)CCC(C)(C)[C@@H]3[C@H](OC(=O)CCN(C)C)[C@H](OC(C)=O)[C@@]2(C)O1
AC50: > 30 µM
--
molecule: NS(=O)(=O)c1cc(C2(O)NC(=O)c3ccccc32)ccc1Cl (configuration not stated)
AC50: > 10 µM
--
molecule: CC(C)(C)NCC(O)c1cc(Cl)c(N)c(Cl)c1 (configuration not stated)
AC50: > 30 µM
--
molecule: CO/N=C(\C(=O)N[C@@H]1C(=O)N2C(C(=O)O)=C(COC(N)=O)CS[C@H]12)c1ccco1
AC50: > 30 µM
--
molecule: CCCCC1(CC)C(=O)NC(=O)NC1=O
AC50: > 30 µM
--
molecule: O=C(Nc1c(Cl)cncc1Cl)c1ccc(OC(F)F)c(OCC2CC2)c1
AC50: > 30 µM
--
molecule: CC(C)C[C@H](CN)CC(=O)O
AC50: > 30 µM
--
molecule: C[C@H]1C[C@H]2[C@@H]3CCC4=CC(=O)C=C[C@]4(C)[C@@]3(Cl)[C@@H](O)C[C@]2(C)[C@@]1(O)C(=O)CO
AC50: > 30 µM

====

- target or test system: 5-hydroxytryptamine receptor 3A (Homo sapiens); further: assay procedure not described here
- Sequence (P46098 whole entry): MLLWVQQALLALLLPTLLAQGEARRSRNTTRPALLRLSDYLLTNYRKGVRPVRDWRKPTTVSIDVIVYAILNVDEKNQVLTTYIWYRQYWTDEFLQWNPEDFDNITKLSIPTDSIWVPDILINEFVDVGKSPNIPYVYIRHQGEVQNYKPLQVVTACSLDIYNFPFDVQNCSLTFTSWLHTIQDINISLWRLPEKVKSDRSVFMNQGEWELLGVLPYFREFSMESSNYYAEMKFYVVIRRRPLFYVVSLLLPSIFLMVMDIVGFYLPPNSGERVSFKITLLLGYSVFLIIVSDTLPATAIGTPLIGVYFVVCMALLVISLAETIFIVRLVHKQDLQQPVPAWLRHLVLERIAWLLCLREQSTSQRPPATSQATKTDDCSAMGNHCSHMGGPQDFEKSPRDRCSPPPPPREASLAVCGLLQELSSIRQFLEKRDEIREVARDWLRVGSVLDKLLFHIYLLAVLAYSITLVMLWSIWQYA
- Format: functional

compound: COC(=O)[C@H](c1ccccc1Cl)N1CCc2sccc2C1
AC50: > 30 µM

compound: O=C(O)CSCC(=O)NC1CCSC1=O (stereo not given)
AC50: > 30 µM

compound: N#C[C@@H]1CCCN1C(=O)CNC12CC3CC(CC(O)(C3)C1)C2
AC50: > 30 µM

compound: CCCCCCOC(=O)CCC(=O)CN [HEXAMINOLEVULINATE]
AC50: > 30 µM

compound: CCn1cc(C(=O)O)c(=O)c2cc(F)c(N3CCN(C)CC3)cc21
AC50: > 30 µM

compound: CCCN(CCC)CCc1cccc2c1CC(=O)N2
AC50: > 30 µM

compound: COc1ccc(C(CN(C)C)C2(O)CCCCC2)cc1 (stereo not given)
AC50: > 30 µM

compound: O=C1CN=C(c2ccccc2)c2cc(Cl)ccc2N1
AC50: > 10 µM

compound: O=C(Nc1nc(-c2cc(Cl)cs2)c(N2CCN(C3CCCCC3)CC2)s1)c1cnc(N2CCC(C(=O)O)CC2)c(Cl)c1
AC50: > 10 µM

compound: Nc1ccc(C(=O)O)c(O)c1
AC50: > 30 µM

compound: COc1cccc(N(C)C(=S)Oc2ccc3c(c2)CCCC3)n1 [LIRANAFTATE]
AC50: > 30 µM

compound: CN1c2ccccc2C(NCCCCCCC(=O)O)c2ccc(Cl)cc2S1(=O)=O (stereo not given)
AC50: > 30 µM

compound: O=C1NC(=O)C(c2ccccc2)(c2ccccc2)N1
AC50: > 30 µM

compound: C=CC(N)CCC(=O)O (stereo not given)
AC50: > 30 µM

compound: C#C[C@]1(O)CC[C@H]2[C@@H]3CCC4=CC(=O)CCC4=C3C=C[C@@]21CC
AC50: > 30 µM

compound: CN1CCN(c2c(F)cc3c(=O)c(C(=O)O)cn4c3c2SCC4)CC1
AC50: > 30 µM

compound: O=c1oc2ccccc2c(O)c1Cc1c(O)c2ccccc2oc1=O
AC50: > 30 µM

compound: CCC(C)(Oc1ccc(C2(c3ccc(OC(C)(CC)C(=O)O)cc3)CCCCC2)cc1)C(=O)O (stereo not given) [CLINOFIBRATE]
AC50: > 30 µM

compound: CC1(C)C(C=C(Cl)Cl)C1C(=O)OCc1cccc(Oc2ccccc2)c1 (stereo not given)
AC50: > 30 µM

compound: CC(=N)N1CC[C@H](SC2=C(C(=O)O)N3C(=O)[C@H]([C@@H](C)O)[C@H]3C2)C1
AC50: > 300 µM
